Recorded EC50 by entry
# Tested on: BVDV NADL virus
# MEASUREMENT_DESCRIPTION: CPE-based antiviral assay, BVDV NADL in MDBK cells (MTS/PMS)
# CONDITION_LABEL: Bovine viral diarrhea virus isolates and strains, MDBK, 72 h
MEASUREMENT_NAME: EC50

- COMPOUND_STRING: "O=C(Nc1nc2ccc([N+](=O)[O-])cc2s1)c1cc(-c2ccccc2)nc2ccccc12"
  MEASUREMENT_NAME: "EC50"
  RESULT: "> 100 µM"
- COMPOUND_STRING: "Cc1ccc2nc(NC(=O)c3ccccc3)sc2c1"
  MEASUREMENT_NAME: "EC50"
  RESULT: "> 100 µM"
- COMPOUND_STRING: "O=C(Nc1ccn(-c2ccccc2)n1)c1cc(-c2ccco2)nc2ccccc12"
  MEASUREMENT_NAME: "EC50"
  RESULT: "2.3 µM"
- COMPOUND_STRING: "O=C(Nc1ccn(-c2ccccc2)n1)c1cc(-c2cccs2)nc2ccc(F)cc12"
  MEASUREMENT_NAME: "EC50"
  RESULT: "0.06 µM"
- COMPOUND_STRING: "Cc1cc2nc(NC(=O)c3cc(-c4ccccc4)nc4ccccc34)sc2cc1C"
  MEASUREMENT_NAME: "EC50"
  RESULT: "0.3 µM"
- COMPOUND_STRING: "COc1ccc2nc(NC(=O)c3cc(-c4ccco4)nc4c(C)cc(C)cc34)sc2c1"
  MEASUREMENT_NAME: "EC50"
  RESULT: "5.8 µM"
- COMPOUND_STRING: "COc1ccc2nc(NC(=O)c3cc(-c4ccco4)nc4ccc(C)cc34)sc2c1"
  MEASUREMENT_NAME: "EC50"
  RESULT: "11.5 µM"
- COMPOUND_STRING: "O=C(Nc1ccn(-c2ccccc2)n1)c1cc(-c2cccs2)nc2c(Cl)cccc12"
  MEASUREMENT_NAME: "EC50"
  RESULT: "0.2 µM"
- COMPOUND_STRING: "Cc1ccc2nc(NC(=O)c3cc(-c4ccco4)nc4ccccc34)sc2c1"
  MEASUREMENT_NAME: "EC50"
  RESULT: "0.07 µM"
- COMPOUND_STRING: "O=C(Nc1ccccc1)c1cc(-c2ccccc2)nc2ccccc12"
  MEASUREMENT_NAME: "EC50"
  RESULT: "> 100 µM"
- COMPOUND_STRING: "COc1cccc(NC(=O)c2cc(-c3ccccc3)nc3ccccc23)c1"
  MEASUREMENT_NAME: "EC50"
  RESULT: "> 100 µM"
- COMPOUND_STRING: "Cc1ccc2nc(NC(=O)c3ccncc3)sc2c1"
  MEASUREMENT_NAME: "EC50"
  RESULT: "> 100 µM"
- COMPOUND_STRING: "Cc1cccc(-n2ccc(NC(=O)c3cc(-c4cccnc4)nc4ccccc34)n2)c1"
  MEASUREMENT_NAME: "EC50"
  RESULT: "0.02 µM"
- COMPOUND_STRING: "Cc1cccc2sc(NC(=O)c3cc(-c4ccco4)nc4ccccc34)nc12"
  MEASUREMENT_NAME: "EC50"
  RESULT: "0.3 µM"
- COMPOUND_STRING: "COc1ccc2nc(NC(=O)c3cc(-c4ccco4)nc4ccc(Cl)cc34)sc2c1"
  MEASUREMENT_NAME: "EC50"
  RESULT: "24.5 µM"
- COMPOUND_STRING: "COc1ccc2nc(NC(=O)c3cc(-c4cccc(F)c4)nc4ccccc34)sc2c1"
  MEASUREMENT_NAME: "EC50"
  RESULT: "0.9 µM"
- COMPOUND_STRING: "Cc1cccc(-n2ccc(NC(=O)c3cc(-c4ccccc4)nc4ccccc34)n2)c1"
  MEASUREMENT_NAME: "EC50"
  RESULT: "0.02 µM"
